target: HLA-A*31:01; test: IEDB peptide-MHC binding, purified MHC/competitive/radioactivity; filed as Kd, often an IC50 or EC50 that approximates it; bounds were set here for any values at or beyond the usual limits of such assays; settings: source organism: Lassa virus Josiah
Parameter measured: Kd (µM)
Report the figure in µM without appending any unit label.

**Query** I am curious: what Kd value has been reported for SVLRAVLPR ?
**Result** 0.0106

* * *

target: HLA-A*69:01; experiment: IEDB peptide-MHC binding, purified MHC/direct/fluorescence; filed as Kd, often an IC50 or EC50 that approximates it; bounds were set here for any values at or beyond the usual limits of such assays; details: source organism: Mycobacterium tuberculosis
Entries and their Kd
Report the figure in µM without appending any unit label.

Reference set, count: 2
entry_sequence=ALFPIIWAL observed=0.536
entry_sequence=VVEPPRQLV observed=20

Next:
**Query** I am curious: what Kd value has been reported for ILIDTSAWV ?
**Result** 0.429

* * *

biological target: HLA-B*27:05; test: IEDB peptide-MHC binding, purified MHC/direct/fluorescence; filed as Kd, often an IC50 or EC50 that approximates it; bounds were set here for any values at or beyond the usual limits of such assays; conditions: source organism: Hepatovirus A
pKd: −log10 of the molar value.
Parameter measured: pKd

**Query** I am curious: what pKd value has been reported for YMYAVSGAL ?
**Result** ≤ 4.70

* * *

biological target: HLA-A*02:06; assay: IEDB peptide-MHC binding, purified MHC/competitive/radioactivity; filed as Kd, often an IC50 or EC50 that approximates it; bounds were set here for any values at or beyond the usual limits of such assays; conditions: source organism: Mammarenavirus brazilense
pKd: −log10 of the molar value.
Parameter measured: pKd

**Query** I am curious: what pKd value has been reported for KCFGNTALA ?
**Result** ≤ 4.11

* * *

biological target: HLA-A*31:01; experiment: IEDB peptide-MHC binding, purified MHC/direct/fluorescence; filed as Kd, often an IC50 or EC50 that approximates it; bounds were set here for any values at or beyond the usual limits of such assays; conditions: source organism: Escherichia coli O157:H7
Parameter measured: Kd

entry_sequence=ETIGLVRAL parameter_measured=Kd observed="≥ 20 µM"

Next:
**Query** I am curious: what Kd value has been reported for ADLRFASEF ?
**Result** ≥ 20 µM

* * *

molecular target: HLA-B*51:01; test: IEDB peptide-MHC binding, purified MHC/direct/fluorescence; filed as Kd, often an IC50 or EC50 that approximates it; bounds were set here for any values at or beyond the usual limits of such assays; details: source organism: Salmonella enterica
Parameter measured: Kd

**Query** I am curious: what Kd value has been reported for YLRNAGAAM ?
**Result** ≥ 20 µM

* * *

molecular target: HLA-A*01:01; assay: IEDB peptide-MHC binding, purified MHC/direct/fluorescence; filed as Kd, often an IC50 or EC50 that approximates it; bounds were set here for any values at or beyond the usual limits of such assays; details: source organism: Hepatovirus A
Parameter measured: Kd

**Query** Notebook: pull reported Kd for HLA-A*01:01, entry YMYAVSGAL
**Result** ≥ 20 µM

* * *

molecular target: HLA-B*27:05; experiment: IEDB peptide-MHC binding, purified MHC/direct/fluorescence; filed as Kd, often an IC50 or EC50 that approximates it; bounds were set here for any values at or beyond the usual limits of such assays; settings: source organism: Yellow fever virus
pKd: −log10 of the molar value.
Parameter measured: pKd

**Query** I am curious: what pKd value has been reported for VNRWLFRHL ?
**Result** ≤ 4.70

* * *

molecular target: HLA-B*08:01; assay: IEDB peptide-MHC binding, purified MHC/direct/fluorescence; filed as Kd, often an IC50 or EC50 that approximates it; bounds were set here for any values at or beyond the usual limits of such assays; details: source organism: Pasteurella multocida
pKd: −log10 of the molar value.
Parameter measured: pKd

**Query** I am curious: what pKd value has been reported for LLKDLMPFV ?
**Result** ≤ 4.70

* * *

molecular target: HLA-A*03:01; assay: IEDB peptide-MHC binding, purified MHC/direct/fluorescence; filed as Kd, often an IC50 or EC50 that approximates it; bounds were set here for any values at or beyond the usual limits of such assays; conditions: source organism: Juquitiba virus
Parameter measured: pKd
Keep it numeric: pKd is minus log10 of the concentration in mol/L.

**Query** I am curious: what pKd value has been reported for GFAIPIILK ?
**Result** 5.22

* * *

molecular target: HLA-B*15:42; experiment: IEDB peptide-MHC binding, purified MHC/competitive/fluorescence; filed as Kd, often an IC50 or EC50 that approximates it; bounds were set here for any values at or beyond the usual limits of such assays; settings: source organism: Orthohantavirus tulaense
pKd: −log10 of the molar value.
Parameter measured: pKd

**Query** Notebook: pull reported pKd for HLA-B*15:42, entry ILMARYMSK
**Result** ≤ 5.30

* * *

Entries and their pKd
target: HLA-B*40:01; experiment: IEDB peptide-MHC binding, purified MHC/direct/fluorescence; filed as Kd, often an IC50 or EC50 that approximates it; bounds were set here for any values at or beyond the usual limits of such assays; settings: source organism: Giardia lamblia ATCC 50803
pKd: −log10 of the molar value.

entry_sequence=HCIDKTPGL parameter_measured=pKd observed="≤ 4.70"
entry_sequence=KLADMSIYC parameter_measured=pKd observed="≤ 4.70"
entry_sequence=QPWTPVSSF parameter_measured=pKd observed="≤ 4.70"

**Query** I am curious: what pKd value has been reported for EFDNYRGTI ?
**Result** 4.78

**Query** I am curious: what pKd value has been reported for CYPRLWGVR ?
**Result** ≤ 4.70

* * *

target: HLA-B*07:02; assay: IEDB peptide-MHC binding, purified MHC/direct/fluorescence; filed as Kd, often an IC50 or EC50 that approximates it; bounds were set here for any values at or beyond the usual limits of such assays; conditions: source organism: Enterobacteria phage f1
pKd: −log10 of the molar value.
Parameter measured: pKd

**Query** I am curious: what pKd value has been reported for TFMYVFSTF ?
**Result** ≤ 4.70

* * *

biological target: HLA-B*07:02; experiment: IEDB peptide-MHC binding, purified MHC/competitive/radioactivity; filed as Kd, often an IC50 or EC50 that approximates it; bounds were set here for any values at or beyond the usual limits of such assays; details: source organism: Dengue virus 2 Jamaica/1409/1983
Parameter measured: Kd (nM)
Report the figure in nM without appending any unit label.

**Query** I am curious: what Kd value has been reported for SPILSITISE ?
**Result** 2150

**Query** I am curious: what Kd value has been reported for SPLLLTSSQQ ?
**Result** 1220

**Query** I am curious: what Kd value has been reported for VPSIKAGNDI ?
**Result** 2130

* * *

target: HLA-C*08:02; assay: IEDB peptide-MHC binding, purified MHC/direct/fluorescence; filed as Kd, often an IC50 or EC50 that approximates it; bounds were set here for any values at or beyond the usual limits of such assays; details: source organism: human gammaherpesvirus 4
pKd: −log10 of the molar value.
Parameter measured: pKd

**Query** I am curious: what pKd value has been reported for STAPTGSWF ?
**Result** ≤ 4.70

* * *

target: HLA-B*15:01; test: IEDB peptide-MHC binding, purified MHC/competitive/radioactivity; filed as Kd, often an IC50 or EC50 that approximates it; bounds were set here for any values at or beyond the usual limits of such assays; settings: source organism: Dengue virus 1 Brazil/97-11/1997
Parameter measured: Kd (nM)
Report the figure in nM without appending any unit label.

entry_sequence=TMAHRKPTY readout_unit=nM observed=144
entry_sequence=MLMTGTLAVF readout_unit=nM observed=1.24

**Query** I am curious: what Kd value has been reported for RSQVGVGVF ?
**Result** 26

* * *

target: HLA-A*02:16; assay: IEDB peptide-MHC binding, purified MHC/direct/fluorescence; filed as Kd, often an IC50 or EC50 that approximates it; bounds were set here for any values at or beyond the usual limits of such assays; conditions: source organism: Orthohantavirus tulaense
pKd: −log10 of the molar value.
Parameter measured: pKd

**Query** I am curious: what pKd value has been reported for ILMARYMSK ?
**Result** ≤ 4.70

* * *

target: HLA-A*68:01; test: IEDB peptide-MHC binding, purified MHC/competitive/radioactivity; filed as Kd, often an IC50 or EC50 that approximates it; bounds were set here for any values at or beyond the usual limits of such assays; settings: source organism: Lassa virus Josiah
Parameter measured: pKd
Keep it numeric: pKd is minus log10 of the concentration in mol/L.

**Query** I am curious: what pKd value has been reported for SVLRAVLPR ?
**Result** 7.18

* * *

molecular target: HLA-B*48:01; test: IEDB peptide-MHC binding, purified MHC/direct/fluorescence; filed as Kd, often an IC50 or EC50 that approximates it; bounds were set here for any values at or beyond the usual limits of such assays; settings: source organism: Influenza A virus (A/swine/Korea/S190/2004(H9N2))
Parameter measured: Kd

**Query** Notebook: pull reported Kd for HLA-B*48:01, entry WIPKRNRSI
**Result** ≥ 20 µM
